- protocol: Affinity for opioid receptor delta sites
pKi: −log10 of the molar value.
Assignment: determine reported pKi for the given molecules.

Record pKi for all entries; do not skip any.
1. O=C(Cc1ccc(Cl)c(Cl)c1)N1CCc2[nH]c3ccccc3c2C1CN1CCCC1 (stereo not drawn)
2. O=C(Cc1ccc(Cl)c(Cl)c1)N1CCc2sccc2C1CN1CCCCC1 (stereo not drawn)
3. O=C(Cc1ccc(C(F)(F)F)cc1)N1CCc2sccc2C1CN1CCCCC1 (stereo not drawn)

Ans.
1. < 6.00
2. < 6.00
3. < 6.00
